# credit: patent US20260042834A1

Target: T1, biotinylated CRH (human and mouse, not fully specified; biotinylated, position not stated)
T1 construct: also called Biotin-CRH; biotin-labeled CRH
T1 peptide: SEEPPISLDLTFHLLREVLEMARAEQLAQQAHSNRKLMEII
Assay: competitive ELISA, coated 1st mAb; competitor PR302050
Provide the reported % Inhibition of each item.
Answers are plain numbers, in %.

Check out these entries, answers already filled in.
# binder, output-unit, % Inhibition
measured = [
    ("PR302055 (antibody, human IgG1, kappa, V domains shown, Humanized variant of PR301777) VH: EMQLVESGGGLVQPGGSLKLSCAASGFTFSNYWMNWVRQASGKGLEWVAEIRLKSNNYATHYAESVKGRFTISRDDSKSTVYLQMNSLKTEDTAVYYCTVGTLVYWGQGTLVTVSS VL: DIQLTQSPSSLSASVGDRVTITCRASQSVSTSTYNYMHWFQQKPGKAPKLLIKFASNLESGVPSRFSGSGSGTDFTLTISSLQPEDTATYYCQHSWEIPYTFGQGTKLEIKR", "%", 95),
    ("PR302069 (antibody, human IgG1, kappa, V domains shown, Humanized variant of PR301777) VH: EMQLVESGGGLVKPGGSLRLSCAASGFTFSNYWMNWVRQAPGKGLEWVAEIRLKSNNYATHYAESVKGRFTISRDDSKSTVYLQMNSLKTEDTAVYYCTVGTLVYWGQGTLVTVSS VL: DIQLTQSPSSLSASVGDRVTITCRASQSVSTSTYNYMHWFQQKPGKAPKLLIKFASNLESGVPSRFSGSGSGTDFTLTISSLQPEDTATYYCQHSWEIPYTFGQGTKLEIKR", "%", 95),
]

Hi! Can you tell me % Inhibition for each of these binders?
1. PR302064 (antibody, human IgG1, kappa, V domains shown, Humanized variant of PR301777) VH: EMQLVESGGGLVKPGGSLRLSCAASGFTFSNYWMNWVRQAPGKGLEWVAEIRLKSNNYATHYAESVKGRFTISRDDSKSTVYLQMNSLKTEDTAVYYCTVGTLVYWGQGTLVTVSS VL: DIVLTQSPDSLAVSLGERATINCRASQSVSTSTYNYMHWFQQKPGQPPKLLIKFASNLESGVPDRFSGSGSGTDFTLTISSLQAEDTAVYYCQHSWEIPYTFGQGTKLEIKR
2. PR302050 (antibody, human IgG1, kappa, V domains shown, Humanized variant of PR301777) VH: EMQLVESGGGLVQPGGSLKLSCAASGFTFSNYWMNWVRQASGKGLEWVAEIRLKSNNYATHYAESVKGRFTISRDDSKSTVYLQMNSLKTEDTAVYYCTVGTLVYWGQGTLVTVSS VL: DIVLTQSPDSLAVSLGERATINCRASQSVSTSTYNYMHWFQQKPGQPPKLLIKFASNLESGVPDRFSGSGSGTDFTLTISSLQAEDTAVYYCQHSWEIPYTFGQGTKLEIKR

Reply:
[95, 94]
